- Tested on: ATF4 luciferase reporter in HEK293T cells
- test: ATF4-Luc assay (in vitro model of VWMD)
- Assay type: cell-based, human
- testConditions: Homo sapiens, HEK-293T, 7 h, HEK293T cells carrying the ATF4 luciferase reporter, 1 μg/mL tunicamycin, One Glo luminescence

[
  {
    "compound": "O=C(CO[C@H]1C[C@@H](OC(F)(F)F)C1)NC12CC(NC(=O)[C@H]3C[C@H](O)c4cc(Cl)c(Cl)cc4O3)(C1)C2",
    "EC50": "< 10 nM"
  },
  {
    "compound": "O=C(NC12CCC(n3cc(OCCOC(F)(F)F)cn3)(C1)C2)[C@H]1C[C@@H](O)c2cc(Cl)c(F)cc2O1",
    "EC50": "10 to 50 nM"
  },
  {
    "compound": "O=C1C[C@H](C(=O)N[C@H]2C[C@H]3CC[C@@H](C2)N3CCCOc2ccc(Cl)cc2)Oc2ccc(Cl)cc21",
    "EC50": "> 2000 nM"
  },
  {
    "compound": "O=C(NC12CC(n3cc(O[C@H]4CC[C@H](OC(F)(F)F)C4)cn3)(C1)C2)[C@H]1C[C@@H](O)c2cc(Cl)ccc2O1 (racemic)",
    "EC50": "10 to 50 nM"
  },
  {
    "compound": "O=C(NC12CC(n3cc(-c4ccc(OC(F)(F)F)cn4)cn3)(C1)C2)[C@H]1C[C@H](O)c2cc(Cl)ccc2O1",
    "EC50": "< 10 nM"
  },
  {
    "compound": "O=C(NC12CC(c3ccc(-n4cnc(C(F)(F)F)c4)nc3)(C1)C2)[C@H]1C[C@@H](O)c2cc(Cl)c(F)cc2O1",
    "EC50": "< 10 nM"
  },
  {
    "compound": "O=C(NC12CC(n3cc(C[C@H]4C[C@@H](OC(F)(F)F)C4)cn3)(C1)C2)[C@H]1C[C@@H](O)c2cc(Cl)ccc2O1",
    "EC50": "10 to 50 nM"
  },
  {
    "compound": "O=C(NC12CC(n3cc(CCOC(F)(F)F)cn3)(C1)C2)[C@H]1C[C@@H](O)c2cc(Cl)c(F)cc2O1",
    "EC50": "10 to 50 nM"
  },
  {
    "compound": "O=C(COc1ccc(Cl)c(F)c1)NC12CC(n3cc(OCCOC(F)(F)F)cn3)(C1)C2",
    "EC50": "< 10 nM"
  },
  {
    "compound": "O=C(COc1ccc(Cl)cc1O)NC12CC(n3cc(OCCOC(F)(F)F)cn3)(C1)C2",
    "EC50": "< 10 nM"
  },
  {
    "compound": "O=C(NC12CC(n3cc(C(=O)N4CC[C@H](OC(F)(F)F)C4)cn3)(C1)C2)[C@H]1C[C@@H](O)c2cc(C(F)(F)F)ccc2O1",
    "EC50": "< 10 nM"
  },
  {
    "compound": "O=C(N[C@H]1CC[C@H](n2cc(OCCCOC(F)(F)F)cn2)CC1)[C@H]1C[C@@H](O)c2cc(Cl)c(F)cc2O1",
    "EC50": "< 10 nM"
  },
  {
    "compound": "O=C(CO[C@H]1C[C@@H](OC(F)(F)F)C1)NC12CCC(NC(=O)[C@H]3C[C@@H](O)c4cc(C(F)(F)F)ccc4O3)(CC1)[C@@H](O)C2",
    "EC50": "< 10 nM"
  },
  {
    "compound": "O=C(NC12CC(n3cc(OCCCC(F)(F)F)cn3)(C1)C2)[C@H]1C[C@@H](O)c2cc(C(F)(F)F)c(F)cc2O1",
    "EC50": "< 10 nM"
  },
  {
    "compound": "O=C(NC12CC(n3cc4c(n3)CN(C(=O)COC(F)(F)F)C4)(C1)C2)[C@H]1C[C@@H](O)c2cc(Cl)c(F)cc2O1",
    "EC50": "10 to 50 nM"
  },
  {
    "compound": "C[C@@H](COC(F)(F)F)N(C)c1cnn(C23CC(NC(=O)[C@H]4C[C@@H](O)c5cc(Cl)ccc5O4)(C2)C3)c1",
    "EC50": "500 to 2000 nM"
  },
  {
    "compound": "O=C(COc1ccc(Cl)c(F)c1)NC12CC(n3cc(C4CCN(CC(F)(F)F)CC4)cn3)(C1)C2",
    "EC50": "10 to 50 nM"
  },
  {
    "compound": "O=C(COc1ccc(Cl)c(F)c1)NC12CC(C(=O)NC34CC(C(F)(F)F)(C3)C4)(C1)C2",
    "EC50": "50 to 250 nM"
  },
  {
    "compound": "O=C(NC12CC(n3cnc(C4CC(OC(F)(F)F)C4)c3)(C1)C2)[C@H]1C[C@@H](O)c2cc(C(F)(F)F)ccc2O1 (some centres unmarked)",
    "EC50": "< 10 nM"
  },
  {
    "compound": "O=C(NC12CC(n3cc(C(=O)N4CC[C@@H](OC(F)F)C4)cn3)(C1)C2)[C@H]1C[C@@H](O)c2cc(Cl)ccc2O1",
    "EC50": "250 to 500 nM"
  },
  {
    "compound": "O=C(NC12CC(n3cc(-c4ccc(OC(F)(F)F)cn4)cn3)(C1)C2)[C@@H]1C[C@@H](O)c2cc(C(F)(F)F)ccc2O1",
    "EC50": "< 10 nM"
  },
  {
    "compound": "C[C@@H](COC(F)(F)F)Oc1cnn(C23CC(NC(=O)[C@H]4C[C@@H](O)c5cc(C(F)(F)F)ccc5O4)(C2)C3)c1",
    "EC50": "10 to 50 nM"
  },
  {
    "compound": "O=C(NC12CC(n3cc(N4CC(OC(F)(F)F)C4)cn3)(C1)C2)[C@H]1C[C@@H](O)c2cc(Cl)ccc2O1",
    "EC50": "10 to 50 nM"
  },
  {
    "compound": "O=C(NC12CC(n3cc(C(=O)N4CC[C@H](OC(F)(F)F)C4)cn3)(C1)C2)[C@@H]1C[C@@H](O)c2cc(C(F)(F)F)ccc2O1",
    "EC50": "< 10 nM"
  },
  {
    "compound": "CCO[C@H]1CCN(C(=O)c2cnn(C34CC(NC(=O)[C@H]5C[C@@H](O)c6cc(Cl)ccc6O5)(C3)C4)c2)C1",
    "EC50": "10 to 50 nM"
  },
  {
    "compound": "O=C(N[C@H]1CC[C@H](n2cc(OCCCOC(F)(F)F)cn2)CC1)[C@H]1C[C@@H](O)c2cc(Cl)ccc2O1",
    "EC50": "< 10 nM"
  }
]
